Attribution: PubChem BioAssay AID1963964

tested on: 997726-040-R-J2-PDC tumor spheroids, viability; test: Anticancer human tumor 997726-040-R-J2-PDC patient-derived squamous cell lung carcinoma cell line growth inhibition [PI3K]; settings: second compound 10 µM; first compound 0.1 µM; stronger effect = lower value; spheroids with HUVEC and MSC

compound | units.text | viability, T/C
Cn1ncc(Cl)c1-c1cc(C(=O)NC(CN)Cc2cccc(F)c2)sc1Cl (stereo not drawn) + CC(Nc1ncnc2nc[nH]c12)c1cc2cccc(Cl)c2c(=O)n1-c1ccccc1 | % | 38.8
Cn1ncnc1[C@H]1c2n[nH]c(=O)c3cc(F)cc(c23)N[C@@H]1c1ccc(F)cc1 + Cc1nc(NC(=O)N2CCCC2C(N)=O)sc1-c1ccnc(C(C)(C)C(F)(F)F)c1 | % | 12.8
C#Cc1c(F)ccc2cc(O)cc(-c3ncc4c(N5CC6CCC(C5)N6)nc(OCC56CCCN5CC(F)C6)nc4c3F)c12 (stereo not drawn) + Cc1nc(NC(=O)N2CCCC2C(N)=O)sc1-c1ccnc(C(C)(C)C(F)(F)F)c1 | % | 17.6

====

system: 997726-040-R-J2-PDC tumor spheroids, viability; assay: Anticancer human tumor 997726-040-R-J2-PDC cell line growth inhibition [PI3K]; conditions: second compound 0.01 µM; first compound 0.00316 µM; stronger effect = lower value; spheroids with HUVEC and MSC;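 also: spheroids exposed to compounds for seven days before readout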
Label 1.0 when viability, T/C is strictly below 60%; at or above that, label 0.0.

compound | class.label
CC(=O)c1c(C)c2cnc(Nc3ccc(N4CCNCC4)cn3)nc2n(C2CCCC2)c1=O + COc1c(OCCCN2CCOCC2)ccc2c3n(c(=NC(=O)c4cnc(N)nc4)nc12)CCN3 | 1.0
Cn1ncnc1[C@H]1c2n[nH]c(=O)c3cc(F)cc(c23)N[C@@H]1c1ccc(F)cc1 + CC(Nc1ccc2c(c1)OCCn1cc(N3C(=O)OCC3C(F)F)nc1-2)C(N)=O | 0.0
CC(=O)c1c(C)c2cnc(Nc3ccc(N4CCNCC4)cn3)nc2n(C2CCCC2)c1=O + CC(Nc1ccc2c(c1)OCCn1cc(N3C(=O)OCC3C(F)F)nc1-2)C(N)=O | 0.0
CCN1CCN(Cc2ccc(Nc3ncc(F)c(-c4cc(F)c5nc(C)n(C(C)C)c5c4)n3)nc2)CC1 + CC(Nc1ccc2c(c1)OCCn1cc(N3C(=O)OCC3C(F)F)nc1-2)C(N)=O | 0.0
CC(C)n1nc(-c2ccc3oc(N)nc3c2)c2c(N)ncnc21 + CC(Nc1ccc2c(c1)OCCn1cc(N3C(=O)OCC3C(F)F)nc1-2)C(N)=O | 0.0
CC(C)n1nc(-c2ccc3oc(N)nc3c2)c2c(N)ncnc21 + COc1c(OCCCN2CCOCC2)ccc2c3n(c(=NC(=O)c4cnc(N)nc4)nc12)CCN3 | 1.0

====

tested on: 997726-040-R-J2-PDC tumor spheroids, viability; assay: Anticancer human tumor 997726-040-R-J2-PDC cell line growth inhibition [PI3K]; conditions: second compound 0.0316 µM; first compound 10 µM; stronger effect = lower value; spheroids with HUVEC and MSC;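 also: spheroids exposed to compounds for seven days before readout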

compound | target.under.test | units.text | viability, T/C
C=CC(=O)N1CCN(c2nc(=O)n(-c3c(C)ccnc3C(C)C)c3nc(-c4c(O)cccc4F)c(F)cc23)C(C)C1 (stereo not drawn) + CC(Nc1ncnc2nc[nH]c12)c1cc2cccc(Cl)c2c(=O)n1-c1ccccc1 | 997726-040-R-J2-PDC tumor spheroids, viability | % | 130
C[C@@H](NC(=O)c1ncnc(N)c1Cl)c1ncc(C(=O)Nc2cc(C(F)(F)F)c(Cl)cn2)s1 + CC(Nc1ccc2c(c1)OCCn1cc(N3C(=O)OCC3C(F)F)nc1-2)C(N)=O | 997726-040-R-J2-PDC tumor spheroids, viability | % | 45.3
CC1(C)CCC(Nc2ncc(C(F)(F)F)c(-c3c[nH]c4c(P(C)(C)=O)c(C#N)ccc34)n2)CN1 (stereo not drawn) + CC(Nc1ncnc2nc[nH]c12)c1cc2cccc(Cl)c2c(=O)n1-c1ccccc1 | 997726-040-R-J2-PDC tumor spheroids, viability | % | 29.6
CCCS(=O)(=O)Nc1ccc(F)c(C(=O)c2c[nH]c3ncc(-c4ccc(Cl)cc4)cc23)c1F + Cc1nc(NC(=O)N2CCCC2C(N)=O)sc1-c1ccnc(C(C)(C)C(F)(F)F)c1 | 997726-040-R-J2-PDC tumor spheroids, viability | % | 25
Cn1nccc1Nc1nccc(-c2ccn(C(CO)c3ccc(Cl)c(F)c3)c(=O)c2)n1 (stereo not drawn) + CC(Nc1ccc2c(c1)OCCn1cc(N3C(=O)OCC3C(F)F)nc1-2)C(N)=O | 997726-040-R-J2-PDC tumor spheroids, viability | % | 31.8
CC1(C)CCC(CN2CCN(c3ccc(C(=O)NS(=O)(=O)c4ccc(NCC5CCOCC5)c([N+](=O)[O-])c4)c(Oc4cnc5[nH]ccc5c4)c3)CC2)=C(c2ccc(Cl)cc2)C1 + Cc1nc(NC(=O)N2CCCC2C(N)=O)sc1-c1ccnc(C(C)(C)C(F)(F)F)c1 | 997726-040-R-J2-PDC tumor spheroids, viability | % | 30.9
CC1(C)CCC(CN2CCN(c3ccc(C(=O)NS(=O)(=O)c4ccc(NCC5CCOCC5)c([N+](=O)[O-])c4)c(Oc4cnc5[nH]ccc5c4)c3)CC2)=C(c2ccc(Cl)cc2)C1 + COc1c(OCCCN2CCOCC2)ccc2c3n(c(=NC(=O)c4cnc(N)nc4)nc12)CCN3 | 997726-040-R-J2-PDC tumor spheroids, viability | % | 21.2
Cn1ncc(Cl)c1-c1cc(C(=O)NC(CN)Cc2cccc(F)c2)sc1Cl (stereo not drawn) + CC(Nc1ncnc2nc[nH]c12)c1cc2cccc(Cl)c2c(=O)n1-c1ccccc1 | 997726-040-R-J2-PDC tumor spheroids, viability | % | 12.3
CC(C)NCC(C(=O)N1CCN(c2ncnc3c2C(C)CC3O)CC1)c1ccc(Cl)cc1 (stereo not drawn) + CC(Nc1ccc2c(c1)OCCn1cc(N3C(=O)OCC3C(F)F)nc1-2)C(N)=O | 997726-040-R-J2-PDC tumor spheroids, viability | % | 8.75
C#Cc1c(F)ccc2cc(O)cc(-c3ncc4c(N5CC6CCC(C5)N6)nc(OCC56CCCN5CC(F)C6)nc4c3F)c12 (stereo not drawn) + Cc1nc(NC(=O)N2CCCC2C(N)=O)sc1-c1ccnc(C(C)(C)C(F)(F)F)c1 | 997726-040-R-J2-PDC tumor spheroids, viability | % | 75.5
CC(Cn1ccc(-c2ccc(C#N)c(Cl)c2)n1)NC(=O)c1cc(C(C)O)[nH]n1 (stereo not drawn) + Cc1nc(NC(=O)N2CCCC2C(N)=O)sc1-c1ccnc(C(C)(C)C(F)(F)F)c1 | 997726-040-R-J2-PDC tumor spheroids, viability | % | 86
Cn1ncc(Cl)c1-c1cc(C(=O)NC(CN)Cc2cccc(F)c2)sc1Cl (stereo not drawn) + Cc1nc(NC(=O)N2CCCC2C(N)=O)sc1-c1ccnc(C(C)(C)C(F)(F)F)c1 | 997726-040-R-J2-PDC tumor spheroids, viability | % | 5.52
C#Cc1c(F)ccc2cc(O)cc(-c3ncc4c(N5CC6CCC(C5)N6)nc(OCC56CCCN5CC(F)C6)nc4c3F)c12 (stereo not drawn) + COc1c(OCCCN2CCOCC2)ccc2c3n(c(=NC(=O)c4cnc(N)nc4)nc12)CCN3 | 997726-040-R-J2-PDC tumor spheroids, viability | % | 27.7

====

Quick reference: IC50 of the listed items.
system: 997726-040-R-J2-PDC tumor spheroids, viability; test: Anticancer human tumor 997726-040-R-J2-PDC cell line growth inhibition [PI3K]; conditions: curve of compound; spheroids with HUVEC and MSC;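 also: spheroids exposed to compounds for seven days before readout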

compound | IC50
C[C@@H](NC(=O)c1ncnc(N)c1Cl)c1ncc(C(=O)Nc2cc(C(F)(F)F)c(Cl)cn2)s1 | > 10 µM
CC(C)NCC(C(=O)N1CCN(c2ncnc3c2C(C)CC3O)CC1)c1ccc(Cl)cc1 (centres undefined) | 336 nM [middle of 4 runs]
Cn1ncnc1[C@H]1c2n[nH]c(=O)c3cc(F)cc(c23)N[C@@H]1c1ccc(F)cc1 | > 0.1 µM
C=CC(=O)N1CCN(c2nc(=O)n(-c3c(C)ccnc3C(C)C)c3nc(-c4c(O)cccc4F)c(F)cc23)C(C)C1 (centres undefined) | > 10 µM

====

Quick reference: viability, T/C of the listed items.
tested on: 997726-040-R-J2-PDC tumor spheroids, viability; assay: Anticancer human tumor 997726-040-R-J2-PDC cell line growth inhibition [PI3K]; details: second compound 0.0316 µM; first compound 0.0316 µM; stronger effect = lower value; spheroids with HUVEC and MSC;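 also: spheroids exposed to compounds for seven days before readout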
quantity.measured: viability, T/C (%)

compound | quantity.measured | reported.measurement
CC(Cn1ccc(-c2ccc(C#N)c(Cl)c2)n1)NC(=O)c1cc(C(C)O)[nH]n1 (stereo unspecified) + COc1c(OCCCN2CCOCC2)ccc2c3n(c(=NC(=O)c4cnc(N)nc4)nc12)CCN3 | viability, T/C | 35.7
Cn1ncnc1[C@H]1c2n[nH]c(=O)c3cc(F)cc(c23)N[C@@H]1c1ccc(F)cc1 + CC(Nc1ccc2c(c1)OCCn1cc(N3C(=O)OCC3C(F)F)nc1-2)C(N)=O | viability, T/C | 70.2
CC(C)n1nc(-c2ccc3oc(N)nc3c2)c2c(N)ncnc21 + CC(Nc1ncnc2nc[nH]c12)c1cc2cccc(Cl)c2c(=O)n1-c1ccccc1 | viability, T/C | 50
Cn1nccc1Nc1nccc(-c2ccn(C(CO)c3ccc(Cl)c(F)c3)c(=O)c2)n1 (stereo unspecified) + COc1c(OCCCN2CCOCC2)ccc2c3n(c(=NC(=O)c4cnc(N)nc4)nc12)CCN3 | viability, T/C | 37.3
CCN1CCN(Cc2ccc(Nc3ncc(F)c(-c4cc(F)c5nc(C)n(C(C)C)c5c4)n3)nc2)CC1 + Cc1nc(NC(=O)N2CCCC2C(N)=O)sc1-c1ccnc(C(C)(C)C(F)(F)F)c1 | viability, T/C | 61.5
CCN1CCN(Cc2ccc(Nc3ncc(F)c(-c4cc(F)c5nc(C)n(C(C)C)c5c4)n3)nc2)CC1 + CC(Nc1ccc2c(c1)OCCn1cc(N3C(=O)OCC3C(F)F)nc1-2)C(N)=O | viability, T/C | 45.9
